# Tested on: AGS cell strain
# test name: Measurement of apoptosis (Annexin V staining, FACS)
# Type: cell-based
# condition parameters: AGS; mimic 10 nM, 10 uM 5-FU 24 h after transfection, then 48 hours; Annexin V; relative to scrambled control (=1); n=9
value kind: Relative Apoptotic cell
Numbers only.

Below are worked cases with known answers.
# substance, Relative Apoptotic cell
records = [
    ("BART2-5p: EBV BART miRNA mimic, double stranded RNA; sense SEQ NO: 85, antisense SEQ NO: 86 (sense UAUUUUCUGCAUUCGCCCUUGC; antisense GCAAGGGCGAAUGCAGAAAAUA; chemistry not given here)", 1.082),
    ("BART4-5p: EBV BART miRNA mimic, double stranded RNA; sense SEQ NO: 5, antisense SEQ NO: 6 (sense GACCUGAUGCUGCUGGUGUGCU; antisense AGCACACCAGCAGCAUCAGGUC; chemistry not given here)", 1.204),
    ("BART3-3p: EBV BART miRNA mimic, double stranded RNA; sense SEQ NO: 3, antisense SEQ NO: 4 (sense CGCACCACUAGUCACCAGGUGU; antisense ACACCUGGUGACUAGUGGUGCG; chemistry not given here)", 1.111),
]

Please examine the following record next.
Q: Which measured Relative Apoptotic cell value corresponds to BART6-3p: EBV BART miRNA mimic, double stranded RNA; sense SEQ NO: 31, antisense SEQ NO: 32 (sense CGGGGAUCGGACUAGCCUUAGA; antisense UCUAAGGCUAGUCCGAUCCCCG; chemistry not given here) ?
Result: 1.018

---

# Tested on: AGS cell strain
# test name: Effect on cell cycle (propidium iodide staining, FACS, sub G1)
# Format: cell-based
# condition parameters: mimic 10 nM, 10 uM 5-FU 24 h after transfection, then 48 hours, relative to scrambled control (=1)
value kind: Relative Sub G1
Numbers only.

Dear colleague, could you send me Relative Sub G1 for each of the items below? Thanks.
1. BART10-5p: EBV BART miRNA mimic, double stranded RNA; sense SEQ NO: 57, antisense SEQ NO: 58 (sense GCCACCUCUUUGGUUCUGUACA; antisense UGUACAGAACCAAAGAGGUGGC; chemistry not given here)
2. BART20-5p: EBV BART miRNA mimic, double stranded RNA; sense SEQ NO: 73, antisense SEQ NO: 74 (sense UAGCAGGCAUGUCUUCAUUCC; antisense GGAAUGAAGACAUGCCUGCUA; chemistry not given here)

Result:
1. 0.833
2. 1.379

---

# Tested on: AGS cell strain
# test name: Measurement of apoptosis (Annexin V staining, FACS)
# Type: cell-based
# condition parameters: AGS; mimic 10 nM, 10 uM 5-FU 24 h after transfection, then 48 hours; Annexin V; relative to scrambled control (=1); n=9
value kind: Relative Apoptotic cell

Below are worked cases with known answers.
# substance, value kind, reading
records = [
    ("BART13-3p: EBV BART miRNA mimic, double stranded RNA; sense SEQ NO: 79, antisense SEQ NO: 80 (sense UGUAACUUGCCAGGGACGGCUGA; antisense UCAGCCGUCCCUGGCAAGUUACA; chemistry not given here)", "Relative Apoptotic cell", 1.187),
    ("BART9-5p: EBV BART miRNA mimic, double stranded RNA; sense SEQ NO: 49, antisense SEQ NO: 50 (sense UACUGGACCCUGAAUUGGAAAC; antisense GUUUCCAAUUCAGGGUCCAGUA; chemistry not given here)", "Relative Apoptotic cell", 1.25),
]

Dear colleague, could you send me Relative Apoptotic cell for each of the items below? Thanks.
1. BART7-5p: EBV BART miRNA mimic, double stranded RNA; sense SEQ NO: 41, antisense SEQ NO: 42 (sense CCUGGACCUUGACUAUGAAACA; antisense UGUUUCAUAGUCAAGGUCCAGG; chemistry not given here)
2. BART20-3p: EBV BART miRNA mimic, double stranded RNA; sense SEQ NO: 75, antisense SEQ NO: 76 (sense CAUGAAGGCACAGCCUGUUACC; antisense GGUAACAGGCUGUGCCUUCAUG; chemistry not given here)
3. BART11-3p: EBV BART miRNA mimic, double stranded RNA; probably sense SEQ NO: 63, antisense SEQ NO: 64 (printed as BART11-5p) (sense ACGCACACCAGGCUGACUGCC; antisense GGCAGUCAGCCUGGUGUGCGU; chemistry not given here)

Result:
1. 1.097
2. 1.416
3. 1.058

Origin of measurements: patent US9243247B2
